ASSAY_SUMMARY: STAT1 signaling inhibitors, primary screen, cell-based, HTS, luciferase reporter (AID 920)
MEASUREMENT_CONDITIONS: NIH 3T3 STAT1-luciferase reporter, IFN-gamma, luminescence; at 5.5 µM
Hit rate of the full screen: of about 200,000 compounds, about 700 (0.35%) were called active.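 Rule for the calls: active = inhibition above a set limit, the mean inhibition across all tested compounds plus 3 SD (cut at about 34% in these data); inactive = the rest.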 What follows is part of a selection rich in actives, with near analogues and random picks from the rest.
Outcomes: YES (active), NO (inactive)

INSERT INTO results (molecule, discrete_label) VALUES
  ('COc1ccc(C2CC(c3cccs3)=NN2C(=O)CSc2nncs2)cc1OC (stereo unspecified)', 'NO'),
  ('C(=N\Nc1ccc2ccccc2n1)/c1ccc2c(c1)OCO2', 'YES'),
  ('Fc1ccc2[nH]c3c(N4CCN(Cc5ccc6c(c5)OCO6)CC4)ncnc3c2c1', 'YES'),
  ('Cc1noc(C)c1COc1cccc(C(=O)Nc2cccnc2)c1', 'NO'),
  ('Cc1ccc(-c2cn3cc(C)ccc3n2)cc1', 'YES'),
  ('O=c1cnnc(Nc2ccccc2F)[nH]1', 'NO'),
  ('Cc1ccc(C(C)(C)C)c(OCCCCN2CCCC2)c1', 'NO'),
  ('CCCCCC(=O)Nc1ccc2oc(-c3ccncc3)nc2c1', 'NO'),
  ('C[C@@H]1C[C@@H]2O[C@H]2/C=C\C=C\C(=O)Cc2c(Cl)c(O)cc(O)c2C(=O)O1', 'YES'),
  ('COc1ccc(C2CC(c3cccs3)=NN2c2ccc(F)cc2)cc1OC (stereo unspecified)', 'NO'),
  ('CCOc1ccc(OCc2cccc(C(=O)N(CC)CC)c2)cc1', 'YES'),
  ('CCOC(=O)N1CCN(C(=O)C2CCN(Cc3ccc(OC)cc3OC)CC2)CC1', 'NO'),
  ('O=C(O)c1cccc(NC(=S)N/N=C/c2c[nH]c3ccccc23)c1', 'YES'),
  ('CCOC(=O)C1CCN(c2ncnc3c2oc2ccc(Br)cc23)CC1', 'NO'),
  ('CSC(=S)N/N=C/c1c[nH]c2ccccc12', 'NO'),
  ('Fc1ccc2[nH]c3c(N4CCSCC4)ncnc3c2c1', 'NO');
